Could you please report measured cytotoxicity at 70.5 h for the items listed next?
Assay: Human HepG2 cell viability assay in 384 well format
Assay type: toxicity, cell-based
Set-up: dose 125 nL, time 70.5 hour; concentration not given beside the values
Settings: HepG2 cells, read-out: Inhibition
# output: bare number, implied unit %

Can you look up the measured cytotoxicity at 70.5 h of CCn1c(CN(C)C)nnc1C1CCN(Cc2ccccc2)CC1 for me?
-10.3

Also CC(=O)N(C)CC(=O)NCC1(c2c(F)cccc2F)CCCC1 , if possible.
0.534

Next: O=C(NCCN1CCCCCC1=O)c1ccn(-c2ccc(F)cc2)n1
-6.58

Further, for c1cc(-c2nnn3c2COC(CNCc2nccs2)C3)ccn1 (stereo unspecified) ?
-0.24

Repeat for the following molecule: CC(C)c1nnc2n1CCN(CC(=O)N1CCc3ccccc3C1)C2
11.4

Now the molecule Cc1nccn1CCN(C)c1cc(C(C)C)nc2ccnn12
-2.26

One more molecule: Cc1nn(Cc2ccccc2)c(C)c1CNC1CCc2ncnn2C1 (stereo unspecified)
0.852

Now try CC(C)C(C)(CNC(=O)OC(C)(C)C)NC(=O)c1cnccn1 (stereo unspecified) .
2.42

Note, next up: Cn1nc(Cn2ccnc2)c2c1CN(C(=O)c1ccc[nH]1)C2
-10.6

Do the same for Cc1c(Cl)c(C(=O)NN2CCOCC2)nn1C please
-8.4

Moving on to the next molecule: NCc1cnc(Nc2ccccc2)nc1
-17.3

====

Assay: Human HepG2 cell viability assay in 384 well format
Type: toxicity, cell-based
Set-up: dose 125 nL, time 70.5 hour; concentration not given beside the values
Conditions: HepG2 cells, read-out: Inhibition
readout_type: cytotoxicity at 70.5 h

Request the reported cytotoxicity at 70.5 h associated with O=C(NCCc1ccc(F)cc1)NC1CCCc2c1cnn2CCO (stereo unspecified)
-6.55%

Entry to check: Cc1cc(C)c(CNc2ncnc3c2cnn3C)c(=O)[nH]1
-11.1%

# iterate: CN(Cc1ccc(Cl)cc1)S(=O)(=O)N(C)Cc1cnn(C)c1
-1.12%

Same read-out for CCN(Cc1ccncc1)CC1(O)CCN(C(=O)c2cccc(C)c2)C1 (stereo unspecified) ?
-4.75%

Also CN(C)C(=O)N[C@@H]1CN(C2CCOCC2)[C@@H]2CCCO[C@@H]21 , if possible.
-2.52%

Entry to check: Cn1cc(C2CCCN2C(=O)c2cnc(-c3ccco3)s2)cn1 (stereo unspecified)
-4.49%

====

Would you mind telling me the reported cytotoxicity at 70.5 h of each entry?
Experiment: Human HepG2 cell viability assay in 384 well format
Assay type: toxicity, cell-based
Parameters: dose 125 nL, time 70.5 hour; concentration not given beside the values
Details: HepG2 cells, read-out: Inhibition
// return numeric value only (unit: %, not printed)

Query: cytotoxicity at 70.5 h; subject: CCc1nc(-c2noc3ccc(C(=O)NCCN(C)C)cc23)co1
-4.76

Also, Fc1cccc(-n2ccc(CN3CCCC3Cn3cccn3)n2)c1 (configuration not stated) please.
-14.3

Moving on to CC(C)OCCN1CCN(C(=O)c2cccc(-n3cccn3)n2)CC1
-0.664

What do you get for Cc1noc(C)c1CN1C[C@@H](C(=O)O)[C@H](c2ccccn2)C1 ?
-6.58

Try CC1CCN(CCCNS(=O)(=O)c2cc(F)cc(F)c2)CC1 next.
48.4

For Cc1nc2ccc(C(=O)N3C[C@@H](O)[C@H](N4CCN(C)CC4)C3)cc2[nH]1 then?
-4.75

Could you do the same for Cc1ccccc1OCCC(=O)NC(C)c1nnc2n1CCCCC2 (configuration not stated) , please?
-2.91

What would you report for CC(C)c1n[nH]c(C2CN(CC(=O)N(C)Cc3ccco3)CCO2)n1 (configuration not stated) ?
-3.93

Likewise for CCN(CC)C(=O)Cn1ccc2cc(NC(=O)C3CCCO3)ccc21 (configuration not stated) ?
7.81

Do the same for CCC(C(=O)NCc1noc(Cc2cccs2)n1)n1cccn1 (configuration not stated) please
26

Please give the result for CCCC1SCCN1C(=O)c1ccc(-n2ncc(C#N)c2N)cc1 (configuration not stated) too.
-3.53

Field entry: CN1CCCN(C(=O)NCc2ccccc2Cn2cncn2)CC1
-2.94

Same question for Cc1nnc(NCC(c2cccs2)N2CCCC2)c(C#N)c1C (configuration not stated) please.
-2.36

Likewise for CCS(=O)(=O)CC(=O)NC(C)c1ccc(OCCC(C)C)cc1 (configuration not stated) ?
-1.31

Also O=C(CN1CCOC(Cn2cncn2)C1)NC(C1CC1)C1CC1 (configuration not stated) ?
9.73

CCN(CC)C(=O)C1CCCN1C(=O)c1cccc(-n2cnnn2)c1 (configuration not stated) ?
-4.16

Queued: CC(=O)N1CCOCC2(C1)CN(S(C)(=O)=O)CCO2 (configuration not stated)
-9.18

Moving on to the next compound: Cc1ncc(-c2ccnc(NC3CC3)n2)c(-c2cccnc2)n1
14.2

Entry CNC(=O)C1CCN(Cc2cc3c(cc2O)CCC3)CC1 please
27

Thanks! And COc1cccc(CN2CC(O)CN(C(=O)C3CC3)CC2=O)c1OC (configuration not stated) ?
4.25

Then this compound: COc1ccc(-n2cc(CNC(=O)c3ccccn3)nn2)cc1
-8.76

And then O=C(NCCn1ccnc1)N1CCCN(Cc2cccs2)CC1 , what is it?
-9.01

Same thing, different compound: CCC(=O)N1CCN(C(=O)c2ccc(COC)o2)[C@H]2CS(=O)(=O)C[C@H]21
-5.66

Same again, this time with O=C(CN1CCc2ccccc2C1)NCc1cc2n(n1)CCCNC2
-6.65

Now consider Cc1cc(N2CCCC(OC(=O)CCN3CCCC3=O)C2)nc(C)n1 (configuration not stated) .
-5.43

Then this compound: CC(=O)NCC(=O)N1Cc2nccn2CC(CN2CCCC2)C1 (configuration not stated)
0.0844

// query: Cc1nc(CN2CCO[C@H]3CN(C(=O)c4cscn4)C[C@H]32)cs1
-5.86

Then this compound: CCC(C)(C)NC(=O)CN(Cc1cccc(O)c1)C1CCC(O)CC1 (configuration not stated)
-4.94

Try the compound CCn1nc(C)c2c1cnn2CCNS(=O)(=O)CC
3.21

Next compound up: CN(Cc1ccsc1)C(=O)CN1CCc2c(ncn2C)C1
17.8

// same read-out, input: O=C(NCc1ccco1)c1cc[n+]([O-])cc1
-4.13

Okay, and COc1ccc(OC)c(CNCc2c(C(C)C)nn(C)c2N(C)C)c1 ?
-3.06

Lookup CNC(=O)c1cccc(Nc2cnn(C)c2)c1
-1.28

Would you kindly repeat that for CN1CC(c2ccccc2)CC2(CCN(C(=O)c3cccnn3)CC2)C1 (configuration not stated) ?
-4.99

Please give the result for Cc1cc(F)ccc1C(=O)N1CCN(C)C2(CCC(=O)N(C)CC2)C1 (configuration not stated) too.
-9.21

Same again, this time with OCC1CCCCN1CCn1ccnc1-c1ccc2c(c1)OCCO2 (configuration not stated)
-5.38

Then what about the compound Cc1cn(CCn2ccnc2-c2sccc2C)nn1 ?
-2.5

What do you get for CC(=O)c1cnc(NCCN2CCCC(c3ccccc3)C2)nc1C (configuration not stated) ?
14.2

Do the same for O=C(NCC(O)c1cccc(F)c1)C1CCN(C(=O)C2CCC2)CC1 (configuration not stated) please
-1.02

Lookup Cc1ccc(NC(=O)CN2CCCNC2=O)c(SC(F)(F)F)c1
-7.48

Do the same for COc1cc2c(cc1CN1CCc3sccc3C1C)OCCO2 (configuration not stated) please
2.33

Now consider COc1ccc(O)c(C(=O)NCC2CCCN(C3CCOCC3)C2)c1 (configuration not stated) and answer again.
-10.8

====

Assay: Human HepG2 cell viability assay in 384 well format
Assay type: toxicity, cell-based
Design: dose 125 nL, time 70.5 hour; concentration not given beside the values
Details: HepG2 cells, read-out: Inhibition
readout_type: cytotoxicity at 70.5 h

# lookup: cytotoxicity at 70.5 h of CS(=O)(=O)N1C[C@@H]2CC[C@H](C1)N(C(=O)Cn1nc3ccccc3n1)C2
20.9%

Moving on to the next molecule: CC(C)c1cc(NC(=O)CN2CCn3c(nnc3C3CC3)C2)on1
19.6%

Next record, please: CCn1nc(C)c(CN2CCNCC2)c1C
-5.76%

====

Experiment: Human HepG2 cell viability assay in 384 well format
Format: toxicity, cell-based
Set-up: dose 125 nL, time 70.5 hour; concentration not given beside the values
Settings: HepG2 cells, read-out: Inhibition
readout_type: cytotoxicity at 70.5 h (%)
Report as a plain number; the unit % is understood.

Reported cytotoxicity at 70.5 h, compound CCO[C@H]1C[C@@H](O)C12CCN(C(=O)CC(F)(F)F)CC2 : ____
-7.18

Next compound up: Cc1nc(C)n(CC2CN(CCCc3ccccc3)CCO2)n1 (stereo unspecified)
-4.71

Query Cc1n[nH]c(C)c1S(=O)(=O)N1CCC(Oc2ccccc2F)CC1 next
-7.37

Same for O=C(O)c1nnn(Cc2cccc(C(F)(F)F)c2)c1-c1cccnc1
-30.6

Now the same for CCCN1CCc2[nH]cnc2C12CCN(C(=O)Cn1ccnc1C)CC2
-6.5

And then O=C(c1cccnc1)N1C[C@@H]2OCC(=O)N(Cc3cccnc3)[C@@H]2C1 , what is it?
-3.03

Entry to check: CC1CN(c2ncccc2C(=O)Nc2cccc3c2CCCC3)CCN1 (stereo unspecified)
-5.69

Check CCOc1ccccc1N1CCN(CC2(O)CCCNC2)CC1 (stereo unspecified) too.
-1.19

Please answer likewise for Cc1cc(C)n(CC(=O)N2CCC(Nc3cccnn3)CC2)n1
-5.61

For O=S(=O)(CCCN1CCCC1Cn1cccn1)c1ccccc1 (stereo unspecified) then?
-11.1

Please give the result for O=S1(=O)c2ccccc2OCC2(CCN(CCO)CC2)CN1CC1CC1 too.
-0.378
